- Experiment Summary: Volume of distribution at steady state in Alderley Park rat at 2 mg/kg, iv and 5 mg/kg, po
- Format: ADME, organism-based
- Recorded Conditions: in vivo, read-out: Vdss
Quantity: Vd (L/kg)

1. CN(CCOc1cccc2ncnc(Nc3ccc(OCc4ccccn4)c(Cl)c3)c12)C(=O)CO :: 0.9

---

// pIC50 lookup, one value per entry
- Assayed Target: Epidermal growth factor receptor (Homo sapiens)
- Sequence (P00533 whole entry): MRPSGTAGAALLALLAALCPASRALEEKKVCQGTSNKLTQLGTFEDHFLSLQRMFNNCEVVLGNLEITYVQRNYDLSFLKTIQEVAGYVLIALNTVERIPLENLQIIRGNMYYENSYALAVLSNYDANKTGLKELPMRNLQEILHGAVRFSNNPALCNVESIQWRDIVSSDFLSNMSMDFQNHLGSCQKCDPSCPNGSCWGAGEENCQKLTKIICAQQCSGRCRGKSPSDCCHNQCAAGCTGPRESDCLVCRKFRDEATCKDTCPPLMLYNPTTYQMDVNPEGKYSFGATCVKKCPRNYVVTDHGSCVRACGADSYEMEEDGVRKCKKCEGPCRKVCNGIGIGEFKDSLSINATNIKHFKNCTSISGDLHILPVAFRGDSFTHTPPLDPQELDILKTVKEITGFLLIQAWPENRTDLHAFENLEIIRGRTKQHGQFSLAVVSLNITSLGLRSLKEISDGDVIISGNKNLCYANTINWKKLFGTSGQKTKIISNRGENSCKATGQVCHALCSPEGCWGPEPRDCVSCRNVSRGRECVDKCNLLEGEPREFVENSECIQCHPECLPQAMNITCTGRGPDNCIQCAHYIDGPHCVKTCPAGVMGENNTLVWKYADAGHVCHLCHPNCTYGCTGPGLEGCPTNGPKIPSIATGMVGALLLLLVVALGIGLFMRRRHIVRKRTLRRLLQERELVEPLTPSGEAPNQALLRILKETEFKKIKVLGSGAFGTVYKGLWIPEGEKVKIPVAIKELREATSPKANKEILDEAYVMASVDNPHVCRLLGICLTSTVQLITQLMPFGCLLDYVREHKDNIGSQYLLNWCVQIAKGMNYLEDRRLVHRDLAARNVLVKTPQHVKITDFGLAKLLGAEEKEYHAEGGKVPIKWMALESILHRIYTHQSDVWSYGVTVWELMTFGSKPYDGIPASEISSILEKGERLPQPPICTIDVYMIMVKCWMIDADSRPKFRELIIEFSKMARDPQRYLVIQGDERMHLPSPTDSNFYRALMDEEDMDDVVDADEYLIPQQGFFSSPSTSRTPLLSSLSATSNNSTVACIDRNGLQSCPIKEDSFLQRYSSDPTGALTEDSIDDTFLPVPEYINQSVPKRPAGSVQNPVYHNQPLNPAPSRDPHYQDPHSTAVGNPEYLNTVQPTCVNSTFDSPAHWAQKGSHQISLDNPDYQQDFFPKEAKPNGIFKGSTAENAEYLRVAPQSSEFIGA
pIC50: −log10 of the molar value.
Quantity: pIC50

1. C[C@H](CN(C)C(=O)CO)Oc1cccc2ncnc(Nc3ccc(OCc4ccccn4)c(Cl)c3)c12 :: 8.70
2. O=C(CO)N1CCC[C@H]1COc1cccc2ncnc(Nc3ccc(OCc4ccccn4)c(Cl)c3)c12 :: 6.49
3. C[C@H](COc1cccc2ncnc(Nc3ccc(OCc4ccccn4)c(Cl)c3)c12)N(C)C(=O)CO :: 8.52

---

- Experiment Summary: Plasma concentration in mouse at 50 mg/kg, po in presence of 1-aminobenzotriazole after 16 hrs
- Assay type: ADME, organism-based
- Design: dose 50 mg/kg, route oral
Quantity: concentration at 16 h (nM)

1) CN(CCOc1cccc2ncnc(Nc3ccc(OCc4ccccn4)c(Cl)c3)c12)C(=O)CO :: 26

---

- Experiment Summary: Plasma concentration in mouse at 50 mg/kg, po in presence of 1-aminobenzotriazole after 4 hrs
- Type: ADME, organism-based
- Parameters: dose 50 mg/kg, route oral
Quantity: concentration at 4 h (µM)

1) CN(CCOc1cccc2ncnc(Nc3ccc(OCc4ccccn4)c(Cl)c3)c12)C(=O)CO :: 13.8

---

- Experiment Summary: Volume of distribution at steady state in Alderley Park Beagle dog at 50 mg/kg, iv and […], po
- Assay type: ADME, organism-based, Canis lupus familiaris
- Recorded Conditions: in vivo, read-out: Vdss
Quantity: Vd (L/kg)

1. CN(CCOc1cccc2ncnc(Nc3ccc(OCc4ccccn4)c(Cl)c3)c12)C(=O)CO :: 1

---

- Assayed Target: Receptor tyrosine-protein kinase erbB-2 (Homo sapiens, UniProt P04626)
- Sequence (P04626 whole entry): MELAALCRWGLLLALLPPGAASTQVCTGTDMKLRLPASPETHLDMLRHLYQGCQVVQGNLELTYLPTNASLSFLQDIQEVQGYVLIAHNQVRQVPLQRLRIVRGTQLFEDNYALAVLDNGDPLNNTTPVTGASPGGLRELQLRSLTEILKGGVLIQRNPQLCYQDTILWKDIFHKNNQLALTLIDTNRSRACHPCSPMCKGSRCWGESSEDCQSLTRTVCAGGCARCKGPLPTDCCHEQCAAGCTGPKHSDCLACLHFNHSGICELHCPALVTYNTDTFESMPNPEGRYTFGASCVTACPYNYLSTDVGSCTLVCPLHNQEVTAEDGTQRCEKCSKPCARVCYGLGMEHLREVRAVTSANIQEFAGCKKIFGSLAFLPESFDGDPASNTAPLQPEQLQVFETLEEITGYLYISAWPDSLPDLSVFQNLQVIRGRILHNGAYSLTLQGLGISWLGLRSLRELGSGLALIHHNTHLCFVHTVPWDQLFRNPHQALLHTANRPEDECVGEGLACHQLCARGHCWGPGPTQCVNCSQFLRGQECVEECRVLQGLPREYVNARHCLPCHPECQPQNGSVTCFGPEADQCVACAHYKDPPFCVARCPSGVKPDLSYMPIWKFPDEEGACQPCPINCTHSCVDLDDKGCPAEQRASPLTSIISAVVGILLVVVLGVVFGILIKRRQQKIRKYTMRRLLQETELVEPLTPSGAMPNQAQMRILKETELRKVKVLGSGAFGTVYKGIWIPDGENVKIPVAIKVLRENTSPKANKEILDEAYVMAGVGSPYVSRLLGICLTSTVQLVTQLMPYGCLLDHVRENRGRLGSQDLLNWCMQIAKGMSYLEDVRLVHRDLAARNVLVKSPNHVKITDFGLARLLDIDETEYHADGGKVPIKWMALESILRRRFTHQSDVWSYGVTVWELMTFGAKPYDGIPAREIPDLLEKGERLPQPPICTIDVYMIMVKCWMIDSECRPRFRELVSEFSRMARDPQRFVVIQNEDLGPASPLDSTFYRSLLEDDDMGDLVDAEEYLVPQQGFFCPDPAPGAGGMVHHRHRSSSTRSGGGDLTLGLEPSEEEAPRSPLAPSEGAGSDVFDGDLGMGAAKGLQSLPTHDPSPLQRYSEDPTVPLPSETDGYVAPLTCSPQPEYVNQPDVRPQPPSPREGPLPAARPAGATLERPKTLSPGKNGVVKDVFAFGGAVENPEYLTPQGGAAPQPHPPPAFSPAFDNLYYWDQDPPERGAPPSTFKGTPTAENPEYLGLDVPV
- Experiment Summary: Inhibition of ErbB2 kinase
pIC50: −log10 of the molar value.
Quantity: pIC50

1) CN(CCOc1cccc2ncnc(Nc3ccc(OCc4ccccn4)c(Cl)c3)c12)C(=O)CO :: 8.40
2) C[C@@H](COc1cccc2ncnc(Nc3ccc(OCc4ccccn4)c(Cl)c3)c12)N(C)C(=O)CO :: 7.72
3) O=C(CO)N1CCC[C@H]1COc1cccc2ncnc(Nc3ccc(OCc4ccccn4)c(Cl)c3)c12 :: 8.70
4) C[C@@H](CN(C)C(=O)CO)Oc1cccc2ncnc(Nc3ccc(OCc4ccccn4)c(Cl)c3)c12 :: 7.66

---

- Experiment Summary: Plasma concentration in mouse at 50 mg/kg, po in presence of 1-aminobenzotriazole after 2 hrs
- Type: ADME, organism-based
- Design: dose 50 mg/kg, route oral
Quantity: concentration at 2 h (µM)

1) CN(CCOc1cccc2ncnc(Nc3ccc(OCc4ccccn4)c(Cl)c3)c12)C(=O)CO :: 16.5

---

- Experiment Summary: Plasma concentration in mouse at 50 mg/kg, po in presence of 1-aminobenzotriazole after 6 hrs
- Type: ADME, organism-based
- Parameters: dose 50 mg/kg, route oral
Quantity: concentration at 6 h (µM)

1. CN(CCOc1cccc2ncnc(Nc3ccc(OCc4ccccn4)c(Cl)c3)c12)C(=O)CO :: 6.3

---

- Experiment Summary: Clearance in Alderley Park rat at 2 mg/kg, iv and 5 mg/kg, po
- Format: ADME, organism-based
- Recorded Conditions: in vivo
Quantity: clearance (mL/min/kg)

1. CN(CCOc1cccc2ncnc(Nc3ccc(OCc4ccccn4)c(Cl)c3)c12)C(=O)CO :: 10

---

- Assayed Target: UniProt P04626
- Experiment Summary: Inhibition of Erb2 autophosphorylation by cellular clone 24 assay
- Format: functional
pIC50: −log10 of the molar value.
Reported pIC50 values for a set of compounds
Quantity: pIC50

1) C[C@@H](CN(C)C(=O)CO)Oc1cccc2ncnc(Nc3ccc(OCc4ccccn4)c(Cl)c3)c12 :: 6.54
2) O=C(CO)N1CCC[C@@H]1COc1cccc2ncnc(Nc3ccc(OCc4ccccn4)c(Cl)c3)c12 :: 6.83
3) C[C@H](COc1cccc2ncnc(Nc3ccc(OCc4ccccn4)c(Cl)c3)c12)N(C)C(=O)CO :: 7.96
4) O=C(CO)N1CCC[C@H]1COc1cccc2ncnc(Nc3ccc(OCc4ccccn4)c(Cl)c3)c12 :: 6.59
5) C[C@H](CN(C)C(=O)CO)Oc1cccc2ncnc(Nc3ccc(OCc4ccccn4)c(Cl)c3)c12 :: 7.96
6) C[C@@H](COc1cccc2ncnc(Nc3ccc(OCc4ccccn4)c(Cl)c3)c12)N(C)C(=O)CO :: 6.88
7) CN(CCOc1cccc2ncnc(Nc3ccc(OCc4ccccn4)c(Cl)c3)c12)C(=O)CO :: 7.37

---

- Test system: KB
- Experiment Summary: Effect on growth of human KB cells
Listing of entries alongside the reported IC50.
Quantity: IC50

1) CN(CCOc1cccc2ncnc(Nc3ccc(OCc4ccccn4)c(Cl)c3)c12)C(=O)CO :: 8.14 µM
2) C[C@H](CN(C)C(=O)CO)Oc1cccc2ncnc(Nc3ccc(OCc4ccccn4)c(Cl)c3)c12 :: 6.94 µM

---

- System: Mus musculus
- Experiment Summary: AUC in mouse at 50 mg/kg, po
- Assay type: ADME, organism-based, Plasma
- Parameters: dose 50 mg/kg, route oral
- Recorded Conditions: in vivo
Quantity: AUC (µM·h)

1) CN(CCOc1cccc2ncnc(Nc3ccc(OCc4ccccn4)c(Cl)c3)c12)C(=O)CO :: 0.89

---

- Experiment Summary: Volume of distribution at steady state in Alderley Park mouse at 2 mg/kg, iv and 5 mg/kg, po
- Type: ADME, organism-based
- Recorded Conditions: in vivo, read-out: Vdss
Quantity: Vd (L/kg)

1) CN(CCOc1cccc2ncnc(Nc3ccc(OCc4ccccn4)c(Cl)c3)c12)C(=O)CO :: 0.7

---

- Assayed Target: Receptor tyrosine-protein kinase erbB-2 (Homo sapiens)
- Experiment Summary: Inhibition of ErbB2 kinase
Quantity: IC50

1. C[C@H](CN(C)C(=O)CO)Oc1cccc2ncnc(Nc3ccc(OCc4ccccn4)c(Cl)c3)c12 :: < 2 nM
2. C[C@H](COc1cccc2ncnc(Nc3ccc(OCc4ccccn4)c(Cl)c3)c12)N(C)C(=O)CO :: < 2 nM
3. O=C(CO)N1CCC[C@@H]1COc1cccc2ncnc(Nc3ccc(OCc4ccccn4)c(Cl)c3)c12 :: < 2 nM
